Here the recorded pIC50 is given for each entry.
biological target: GSK3α (GST-full length GSK3α) (Homo sapiens (Human)); assay: GSK3α TR-FRET kinase assay; format: biochemical; settings: GSK3-A (TR-FRET 1 mM ATP); GMean; IC50, 1 mM ATP; geometric mean
Sequence (P49840 whole entry): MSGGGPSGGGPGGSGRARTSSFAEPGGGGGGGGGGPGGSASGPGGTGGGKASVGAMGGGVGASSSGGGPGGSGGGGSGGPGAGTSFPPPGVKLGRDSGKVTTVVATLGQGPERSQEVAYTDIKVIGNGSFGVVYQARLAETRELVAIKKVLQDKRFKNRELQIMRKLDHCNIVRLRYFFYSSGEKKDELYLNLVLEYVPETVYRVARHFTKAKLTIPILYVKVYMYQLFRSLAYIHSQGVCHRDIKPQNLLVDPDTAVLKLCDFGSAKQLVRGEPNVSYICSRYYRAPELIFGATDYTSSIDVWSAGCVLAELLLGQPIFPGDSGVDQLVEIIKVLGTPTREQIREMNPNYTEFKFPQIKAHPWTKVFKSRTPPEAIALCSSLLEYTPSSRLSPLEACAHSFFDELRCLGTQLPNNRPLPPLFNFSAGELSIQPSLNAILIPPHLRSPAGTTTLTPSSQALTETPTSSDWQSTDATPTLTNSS
pIC50: −log10 of the molar value.

compound=Cn1cc(S(=O)(=O)N2CCC3(CC2)C2=C(CC(C)(C)CC2=O)Nc2n[nH]cc23)cn1 observed_measurement="6.00 to 7.00"
compound="CCC1(c2cccc(C(F)(F)F)c2)C2=C(Nc3n[nH]cc31)c1ccccc1C2=O (stereo not drawn)" observed_measurement="6.00 to 7.00"
compound="CCC1(c2cccc(C(F)(F)F)c2)C2=C(Nc3n[nH]cc31)C(F)C(C)(C)CC2=O (single isomer, unassigned) [Compound 837646]" observed_measurement="≥ 7.00"
compound=CC1(C)CC(=O)C2=C(C1)Nc1n[nH]cc1C21CCN(S(=O)(=O)c2ccccc2F)CC1 observed_measurement="≥ 7.00"
compound=CC1(C)CC(=O)C2=C(C1)Nc1n[nH]cc1C21CCN(S(=O)(=O)c2ccccc2C(F)F)CC1 observed_measurement="6.00 to 7.00"
compound=Cc1cc(S(=O)(=O)N2CCC3(CC2)C2=C(CC(C)(C)CC2=O)Nc2n[nH]cc23)cc(C)n1 observed_measurement="6.00 to 7.00"
compound=Cn1ccc(S(=O)(=O)N2CCC3(CC2)C2=C(CC(C)(C)NC2=O)Nc2n[nH]cc23)n1 observed_measurement="6.00 to 7.00"
compound=CC(=O)N1C[C@]2(C[C@]3(CO2)C2=C(CC(C)(C)CC2=O)Nc2n[nH]cc23)[C@H]1C observed_measurement="≥ 7.00"
compound=CC1(C)CC(=O)C2=C(C1)Nc1n[nH]cc1C21CCN(S(=O)(=O)C2CCOCC2)CC1 observed_measurement="≥ 7.00"
compound=CC1(C)CC(=O)C2=C(C1)Nc1n[nH]c(C3CC3)c1C21CN(S(=O)(=O)CC2CC2)C1 observed_measurement="6.00 to 7.00"

[ask] Suppose we examine the compound `CC1(C)CC(=O)C2=C(C1)Nc1n[nH]cc1C21CCN(S(=O)(=O)c2cccc(OC(F)F)c2)CC1` ; what pIC50 value has been reported?
[reply] ≥ 7.00

[ask] Next: `CC1(C)CC(=O)C2=C(C1)Nc1n[nH]cc1C21CN(S(=O)(=O)C2CCCC2)C1`
[reply] 6.00 to 7.00

[ask] Can you handle `CC1(C)CC(=O)C2=C(C1)Nc1n[nH]cc1[C@]21CCN(S(=O)(=O)c2cccc(F)c2)C1` next?
[reply] 6.00 to 7.00

[ask] Follow-up item: `COc1ccc(S(=O)(=O)N2CCC3(CC2)C2=C(CC(C)(C)CC2=O)Nc2n[nH]cc23)c(F)c1`
[reply] ≥ 7.00

[ask] Entry to check: `CC1(C)CC(=O)C2=C(C1)Nc1n[nH]cc1C21CC2(CCOCC2)C1`
[reply] 6.00 to 7.00

----------
Target: GSK3α (GST-full length GSK3α) (Homo sapiens (Human))
Test: GSK3α TR-FRET kinase assay
Assay type: biochemical
Settings: read-out: GSK3-A (TR-FRET 1 mM ATP); GMean; IC50; 1 mM ATP; geometric mean
Method: TR-FRET Assay: The assay was performed in a white, 384 well, low volume, flat bottom plate (Grenier). After a 30 minute preincubation in assay buffer with the indicated concentration of compound, the kinase activity was initiated by the addition of the substrates. […] After 60 min at room temperature the plate was read on Envision plate reader using Ex: 340 nm, Em: 615 nm and […]. The normalized 665/615 Signal ratio versus log compound concentration was analyzed by XLFIT to yield IC50 values.
We begin with a simple list: items and their reported IC50.

In the examples that follow, each entry is paired with its recorded IC50.
compound="CCC1(c2cccc(S(=O)(=O)C(C)C)c2)C2=C(CC(C)(C)CC2=O)Nc2n[nH]cc21 (stereo not shown) [Compound 913135]" experimental_system="GSK3α (GST-full length GSK3α) (Homo sapiens (Human))" quantity_measured=IC50 observed_measurement="≤ 0.1 µM"
compound="CC[C@]1(c2cccc(-c3ccncc3F)c2)C2=C(CC(C)(C)NC2=O)Nc2n[nH]cc21 [Compound 947869]" experimental_system="GSK3α (GST-full length GSK3α) (Homo sapiens (Human))" quantity_measured=IC50 observed_measurement="≤ 0.1 µM"
compound="CC[C@]1(c2cccc(C3CC3)c2)C2=C(CC(C)(C)NC2=O)Nc2n[nH]cc21 [Compound 950828]" experimental_system="GSK3α (GST-full length GSK3α) (Homo sapiens (Human))" quantity_measured=IC50 observed_measurement="1 to 5 µM"
compound="CC[C@@]1(c2cccc(-c3c(F)cncc3OC)c2)C2=C(CC(C)(C)C2=O)Nc2n[nH]cc21 [Compound 952564]" experimental_system="GSK3α (GST-full length GSK3α) (Homo sapiens (Human))" quantity_measured=IC50 observed_measurement="0.1 to 1 µM"
compound="CCC1(c2cccc(S(=O)(=O)C3CC3)c2)C2=C(CC(C)(C)CC2=O)Nc2n[nH]cc21 (stereo not shown) [Compound 912171]" experimental_system="GSK3α (GST-full length GSK3α) (Homo sapiens (Human))" quantity_measured=IC50 observed_measurement="≤ 0.1 µM"
compound="CCC1(c2cccc(S(=O)(=O)C3CC3)c2)C2=C(CC(C)(C)CC2=O)Nc2n[nH]c(C(F)(F)F)c21 (stereo not shown) [Compound 945713]" experimental_system="GSK3α (GST-full length GSK3α) (Homo sapiens (Human))" quantity_measured=IC50 observed_measurement="≤ 0.1 µM"

[ask] Query (compound): CC[C@]1(c2cccc(S(=O)(=O)C3CC3)c2)C2=C(CC(C)(C)NC2=O)Nc2[nH]nc(C(F)(F)F)c21 [Compound 948771] ; field requested: IC50
[reply] ≤ 0.1 µM
